system: RPMI-8226 leukemia; experiment: NCI tumour cell line growth inhibition, 48 h
Where a SMILES comes first, the peptide text is derived from it. [ ]: non-standard residue; d: D form. Phe(F5) = N[CH](Cc1c(F)c(F)c(F)c(F)c1F)C(=O)O
TGI values by entry

| compound | TGI |
| --- | --- |
| CC1=C/C(=N\OCC(=O)O)CC(c2ccc(C(C)C)cc2)C1 (centres undefined) | 57.1 µM |
| COC(=O)C(CC(C)C)NC(=O)C(Cc1cnc[nH]1)NC(=O)CNC(=O)C(NC(=O)C(C)NC(=O)C(Cc1c[nH]c2ccccc12)NC(=O)C(CCC(=O)O)NC(=O)C(N)Cc1c(F)c(F)c(F)c(F)c1F)C(C)C (centres undefined) (H-[Phe(F5)]EWAVGHL-OMe; configuration not given here) | > 100 µM |
| Nc1cc(=O)[nH]c(SC2=NC(N)CC(O)C2)n1 (centres undefined) | > 100 µM |
| COc1ccccc1C1CC(=O)CC(c2ccccc2OC)C12C(=O)NC(=S)NC2=O (centres undefined) | 52.7 µM |
| CN(C)CCCNC(=O)c1cc(NC(=O)CCNS(=O)(=O)c2ccc3c(c2)C(=O)c2ccccc2C3=O)cn1C | > 100 µM |
| CCCC(O)[C@@H](O)c1ccc2c(c1O)C(=O)c1c(OC)cccc1C2=O (some centres undefined) | 38.2 µM |

**Q:** Request the reported TGI associated with CN(C)c1ccc2nc3ccc(=[N+](C)C)cc-3oc2c1
**A:** 21 µM

**Q:** Same question for CC1(Sc2ccccc2)CN(Cc2ccccc2)C1=O (centres undefined) please.
**A:** > 100 µM

**Q:** Another compound to look at: CSC1=N[C@H](c2ccccc2)CS1
**A:** > 100 µM

**Q:** Record: C=CCONC(=O)c1ccc(Cl)cc1
**A:** > 100 µM

**Q:** Param item: Nc1ncnc2sc(=S)c3c(c12)CCC3
**A:** 55.3 µM

**Q:** Item: c1ccc(Nc2nnc(CSc3nc(-c4ccccc4)c(-c4ccccc4)[nH]3)s2)cc1
**A:** 50.4 µM

**Q:** Another compound to check: CSc1nnc(CCSc2ccnc3c(C(F)(F)F)cccc23)o1
**A:** > 100 µM

**Q:** Then what about the compound CC12CCC(=O)C=C1CCC1C2CCC2(C)C(C(=O)Cn3cnc4c(=S)nc[nH]c43)CCC12 (centres undefined) ?
**A:** > 100 µM

**Q:** Again, but for CC#COP(=O)(OCC)OCC
**A:** > 100 µM

**Q:** Query Fc1c(F)c(C(F)(F)F)c(F)c(F)c1N/N=C\c1c[nH]c2ccccc12 next
**A:** 10.2 µM

**Q:** Then N#CC(C#N)=CN1CCN(C(=O)c2ccco2)C1=S ?
**A:** > 100 µM

**Q:** Entry Cc1ccc(NCC2CC/C(=C\c3ccc(Cl)cc3)C2=O)cc1 (centres undefined) please
**A:** 6.96 µM

**Q:** # iterate: CC1=CC(=O)c2c(O)cccc2C1=O
**A:** 1.83 µM

----------
Catalogue of GI50 values
system: UO-31 renal; test: NCI tumour cell line growth inhibition, 48 h

| compound | GI50 |
| --- | --- |
| NC(=O)[C@H]1CCN(c2ncnc(N)c2F)C[C@@H]1N1CCC[C@@H](Nc2cc(Cl)cc(C(F)(F)F)c2)C1=O | 9.16 µM |
| Nc1nc(/C=C\c2ccc([N+](=O)[O-])o2)nc(N2CCN(c3ccccc3)CC2)n1 | 13.6 µM |
| N#CC(C#N)=CN1CCN(C(=O)c2ccco2)C1=S | 10.5 µM |
| C=C(C)[C@@H]1CC=C(CO)CC1 | > 10 µM |
| CC1=C(C(=O)OCc2ccccc2)C(c2ccc3c(c2)OCO3)n2c(nc3ccccc32)N1 (centres undefined) | 0.544 µM |
| C=C(C)[C@@H]1CC[C@]2(C(=O)NCCCN)CC[C@]3(C)[C@H](CC[C@@H]4[C@@]5(C)CC[C@H](O)C(C)(C)[C@@H]5CC[C@]43C)[C@@H]12 | 38.9 µM |
| C=C1C(=O)O[C@@H]2C1CC(=O)C(C)CC/C=C(\C)CCC[C@H](C)[C@H]2OC(C)=O (some centres undefined) | 11.9 µM |
| c1ccc2[nH]c(-c3ccc(N4CCN(c5ccc(-c6nc7ccccc7[nH]6)cc5)CC4)cc3)nc2c1 | > 100 µM |

Let's switch to this compound now.
**Q:** # GI50 lookup, item CSc1nnc(CCSc2ccnc3c(C(F)(F)F)cccc23)o1
**A:** 86.8 µM

----------
system: M19-MEL melanoma; assay: NCI tumour cell line growth inhibition, 48 h
measurement_label: TGI

| molecule | TGI |
| --- | --- |
| c1ccc(Nc2nnc(CSc3nc(-c4ccccc4)c(-c4ccccc4)[nH]3)s2)cc1 | 28.6 µM |
| NS(=O)(=O)c1cc2c(cc1Cl)NC(C(=O)c1cc(=O)c3ccc(O)cc3o1)=NS2(=O)=O | > 100 µM |
| CN(C(=O)C12C3C4C1C1C2C3C41I)C(C)(C)C (stereo unspecified) | > 100 µM |
| C=C1C(=O)OC2CC3(C)C=CC(=O)C(=C)C3CC12 (stereo unspecified) | 3.51 µM |
| C=CCONC(=O)c1ccc(Cl)cc1 | > 100 µM |

**Q:** What does the record list as TGI for C/C(CN1C(=O)c2ccccc2C1=O)=N\NS(=O)(=O)c1ccc(Br)cc1 ?
**A:** > 100 µM

**Q:** Here is the next molecule: CN(C)c1ccc(/C=C/C=C\C2=CC(=C\C=C/C=C3C=CC(=[N+](C)C)C=C3)/Sc3ccccc32)cc1
**A:** 35 µM

**Q:** Same thing, different molecule: CC1=C2CCCC2C/C(=N/Nc2ccc([N+](=O)[O-])cc2[N+](=O)[O-])CC1 (stereo unspecified)
**A:** > 100 µM

----------
Quick reference: GI50 of the listed items.
tested on: MOLT-4 leukemia; assay: NCI tumour cell line growth inhibition, 48 h

Worked set:
| compound | GI50 |
| --- | --- |
| COc1cccc(C2=C(c3cn(C)c4ccccc34)C(=O)NC2=O)c1 | 8.54 µM |
| CCCN(Cc1ccc(F)cc1)c1ccc(CO)c(Cl)c1 | 11.2 µM |
| COc1ccc2c(c1)CCC1C2CCC2(C)C1CCC2(O)CNC(=O)CCCCC1CCSS1 (stereo not given) | 1.66 µM |
| Nc1nc(/C=C\c2ccc([N+](=O)[O-])o2)nc(N2CCN(c3ccccc3)CC2)n1 | 8.39 µM |
| COc1cccc(OC(=O)c2ccccc2Nc2ccnc(C(F)(F)F)c2)c1 | 0.692 µM |
| COc1cc2nc(Cl)nc(Nc3cccc(C(=O)/C=C/c4ccccc4)c3)c2cc1OC | 2.77 µM |
| N#CC(C#N)=CN1CCN(C(=O)c2ccco2)C1=S | 5.22 µM |
| CC(C)(O)c1ccc(N2CCN(c3nnc(Cc4ccccc4)c4ccccc34)CC2)nc1 | 5.4 µM |
| CC12CCC(=O)C(O1)C1C(=O)c3cc4ccccc4cc3C(=O)C12 (stereo not given) | 10.4 µM |

Now let's try a different one.
**Q:** Give its GI50 value. Item: COc1cc2cc(Oc3ccc(NC(=O)Nc4ccc(Cl)c(C(F)(F)F)c4)cc3)c(C)nc2cc1OCCN1CCCCC1
**A:** 1.1 µM

----------
system: M14 melanoma; experiment: NCI tumour cell line growth inhibition, 48 h
measurement_label: TGI

**Q:** Consider the compound CC(=O)/C(=C\c1ccco1)C(=O)Nc1ccccc1 and give its measured TGI.
**A:** > 100 µM

**Q:** Same question, CCCCCCn1c(SCC)c2ccccc2c1-c1nc(F)nc(F)n1 this time
**A:** > 100 µM

**Q:** Input c1ccc2nc(Cn3c[n+](Cc4ccc5ccccc5n4)c4ccccc43)ccc2c1
**A:** 6.99 µM

**Q:** Please do the same for C[C@@]12C=CC3C/C(=N\C(N)=S)C=C(CCCC4OCCO4)[C@]3(CC1)C2 (some centres undefined) as well.
**A:** 30.9 µM

----------
tested on: TK-10 renal; experiment: NCI tumour cell line growth inhibition, 48 h
TGI: recorded values

**Q:** I'd like to know its TGI. The compound in question is O=c1cc(CNc2cc(F)cc(F)c2)c2ccc(I)cc2[nH]1
**A:** > 100 µM

**Q:** Thanks! And Fc1c(F)c(C(F)(F)F)c(F)c(F)c1N/N=C\c1c[nH]c2ccccc12 ?
**A:** 15.6 µM

**Q:** Let us now turn to CC1=C(C(=O)OCc2ccccc2)C(c2ccc3c(c2)OCO3)n2c(nc3ccccc32)N1 (stereo not drawn)
**A:** > 100 µM

**Q:** Then NC(=O)OCC(COc1ccc(Cl)cc1)OC(=O)c1ccccc1Cl (stereo not drawn) ?
**A:** 79.9 µM

**Q:** Continue with CSc1nnc(CCSc2ccnc3c(C(F)(F)F)cccc23)o1
**A:** > 100 µM

**Q:** Let us now turn to COc1cccc(C2=C(c3cn(C)c4ccccc34)C(=O)NC2=O)c1
**A:** > 25 µM

**Q:** Please do the same for Cc1ccc(C(=O)Nc2ccc(S(=O)(=O)O)c3cc(S(=O)(=O)O)cc(S(=O)(=O)O)c23)cc1NC(=O)c1cccc(N)c1 as well.
**A:** > 100 µM

**Q:** # iterate: O=S(=O)(c1ccc(NC(=S)NCc2cccnc2)cc1)N1CCCCC1
**A:** > 100 µM
